Taken from patent US20230114728A1.

Reported pEC50 values for a set of molecules
- test.system: E. coli K12 PBP3 (Escherichia coli)
- Sequence (P0AD68 1-577): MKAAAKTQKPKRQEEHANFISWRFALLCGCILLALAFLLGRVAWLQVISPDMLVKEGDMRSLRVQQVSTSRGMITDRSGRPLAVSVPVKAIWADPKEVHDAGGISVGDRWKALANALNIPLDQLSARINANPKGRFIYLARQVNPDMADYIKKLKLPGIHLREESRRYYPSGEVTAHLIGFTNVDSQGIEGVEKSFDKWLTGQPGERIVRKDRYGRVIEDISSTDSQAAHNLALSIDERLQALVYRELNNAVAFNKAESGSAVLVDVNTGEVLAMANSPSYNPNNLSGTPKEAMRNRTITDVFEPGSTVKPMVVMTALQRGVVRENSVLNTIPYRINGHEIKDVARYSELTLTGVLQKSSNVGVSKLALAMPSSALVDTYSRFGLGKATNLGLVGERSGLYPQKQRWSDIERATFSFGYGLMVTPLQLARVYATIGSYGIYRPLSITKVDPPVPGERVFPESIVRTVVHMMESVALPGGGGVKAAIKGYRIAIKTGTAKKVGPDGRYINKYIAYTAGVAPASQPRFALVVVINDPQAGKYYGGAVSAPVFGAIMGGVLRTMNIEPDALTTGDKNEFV
- protocol.details: biochemical
pEC50: −log10 of the molar value.

Problem: // output pEC50; input CCN1CCN(C(=O)NC(C(=O)N[C@H]2Cc3cccc(C(=O)O)c3OB2O)c2ccc(C(N)=O)c(O)c2)C(=O)C1=O (stereo partly drawn) [Example 45] ; system E. coli K12 PBP3 (Escherichia coli)
Solution: > 4.52

Problem: // output pEC50; input NCCN1CCN(C(=O)N[C@H](C(=O)N[C@H]2Cc3cccc(C(=O)O)c3OB2O)c2ccc(O)c([N+](=O)[O-])c2)C(=O)C1=O (single isomer, unassigned) [Example 200] ; system E. coli K12 PBP3 (Escherichia coli)
Solution: < 3.30

Problem: // output pEC50; input CCN1CCN(C(=O)NC(C(=O)N[C@H]2Cc3ccc(O[C@@H]4CN[C@H](C(=O)N(C)C)C4)c(C(=O)O)c3OB2O)c2ccccc2)C(=O)C1=O (stereo partly drawn) [Example 59] ; system E. coli K12 PBP3 (Escherichia coli)
Solution: 3.30 to 4.52

Problem: // output pEC50; input NS(=O)(=O)NC(C(=O)N[C@H]1Cc2ccc(F)c(C(=O)O)c2OB1O)c1ncc(O)cc1F (stereo partly drawn) [Example 43] ; system E. coli K12 PBP3 (Escherichia coli)
Solution: < 3.30

Problem: // output pEC50; input CCN1CCN(C(=O)N[C@H](C(=O)N[C@H]2Cc3cccc(C(=O)O)c3OB2O)c2nc(Cl)c(C(=O)O)cc2F)C(=O)C1=O [Example 19] ; system E. coli K12 PBP3 (Escherichia coli)
Solution: > 4.52

Problem: // output pEC50; input O=C(NCCCN1CCN(C(=O)NC(C(=O)N[C@H]2Cc3ccc(F)c(C(=O)O)c3OB2O)c2ncc(O)cc2F)C(=O)C1=O)c1ccc(O)c(O)c1Cl (stereo partly drawn) [Example 3] ; system E. coli K12 PBP3 (Escherichia coli)
Solution: > 4.52
